System: Noggin (protein binding on small-molecule microarray)
protocol-description: Noggin binders on small-molecule microarray, primary screen, biochemical, 635/667 nm fluorescence (AID 1095);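 also: score merges 667 nm feature fluorescence with signal to noise over triplicate slides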
assay-conditions: 635 nm fluorescence, higher = more signal
Label rule, in plain words: composite z-score of 0.6 and up is label 1, under 0.6 is label 0.

molecule	category-label
CCOc1cc(C(O)C2C=CC3C(=O)N(c4ccccc4)C(=O)C3N2Nc2ccc(C#N)cc2)ccc1O (stereo not drawn)	label 0
COc1ccc(-c2nc(-c3ccccc3)c3c(c2C)CO[Si]3(C(C)C)C(C)C)cn1	label 1
CN(C)C(=O)C1N=C(c2ccc(OCCCO)cc2)N(c2ccccc2)O1 (stereo not drawn)	label 1
Cc1ccc(S[C@]2(C(=O)NCCCN(C)C)CC(=O)N(C3CCCCC3)[C@@H]2c2ccc(CO)cc2)cc1	label 0
O=C1O[C@H](c2ccccc2)[C@H](c2ccccc2)N2[C@H]1[C@@H](C(=O)Nc1nc3ccccc3s1)[C@]1(C(=O)Nc3ccccc31)[C@H]2c1ccc(OCCO)cc1	label 1
COCCOC(=O)N1C(=O)[C@@]2(c3cc(C#CCC(C(=O)OC)C(=O)OC)ccc31)[C@H](C(=O)N1CCc3cc(OC)c(OC)cc3C1)[C@H]1C(=O)O[C@H](c3ccccc3)[C@H](c3ccccc3)N1[C@@H]2c1ccc(OCCO)cc1	label 1
COc1cc(OC)c(C(O)C2C=CC3C(=O)N(c4ccccc4)C(=O)C3N2Nc2ccccc2)cc1Br (stereo not drawn)	label 0
CN1C(=O)C2C=CC(C(O)c3ccccn3)N(N(c3ccccc3)c3ccccc3)C2C1=O (stereo not drawn)	label 0
C#CCN([C@@H](Cc1ccc(O)cc1)C(=O)OC)[C@@H](/C=C/C1CC1)[C@H](O)Cc1ccccc1	label 0
COCC1=C2[C@@H](CCc3ccccc3)OB(O)C[C@@H]2[C@@H]2C(=O)C=CC(=O)[C@@H]2C1	label 1
O=C(NCC(F)(F)F)[C@@H]1c2ccccc2C(=O)N(Cc2cc(F)cc(C(F)(F)F)c2)[C@H]1c1ccc(CO)cc1	label 0
COC(=O)[C@@]1(Cc2ccc(OC)cc2)[C@H]2c3cc(C(=O)N(C)C)n(C[C@H](O)CO)c3C[C@H]2CN1C(=O)c1ccccc1	label 0
COC(=O)[C@@]1(Cc2ccc(OC)cc2)[C@@H]2C(=CC(=O)[C@H]2CC(=O)C(=O)N(C)C)CN1C(=O)c1ccccc1	label 0
C=CCC(OC(C)=O)[C@@H]1[C@@H](N(Cc2cc3ccccc3o2)C(=O)c2ccc(C)cc2)c2cc(OCCCO)ccc2N1C(=O)Cc1ccc(OC)cc1 (stereo partly drawn)	label 0
CCOC(=O)[C@H]1[C@@H]2C(=O)N3CCC[C@H]3[C@H](O[Si](C(C)C)(C(C)C)C(C)C)[C@H]2C=C2CCN(S(=O)(=O)c3ccc(C)cc3)C[C@H]21	label 0
COC(=O)c1ccc([C@H](NC(=O)c2ccco2)[C@]2(C)C[C@H]2C2CCCCC2)cc1	label 0
C=CCOC(=O)[C@H]1[C@@H]2C(=O)O[C@@H](c3ccccc3)[C@@H](c3ccccc3)N2[C@@H](c2ccc(OCCOC(=O)[C@@H]3C[C@@H]4C(=O)N[C@@H](CCCCNC(C)=O)C(=O)N4[C@@H]3c3ccc(O)cc3)cc2)[C@]12C(=O)Nc1ccc(I)cc12	label 1
CN1C(=O)C2C=CC(C(O)c3cccc(O)c3)N(Nc3ccccc3)C2C1=O (stereo not drawn)	label 0
CCCCCCc1nc(C2CC2)cc2c1[Si](C(C)C)(C(C)C)O[C@H]2c1ccccc1	label 1
CN(C)c1ccc(C(O)C2C=CC3C(=O)N(c4ccccc4)C(=O)C3N2Nc2ccc([N+](=O)[O-])cc2)cc1 (stereo not drawn)	label 0
O=C(NCC(F)(F)F)[C@@H]1c2ccccc2C(=O)N(Cc2ccccc2C(F)(F)F)[C@H]1c1ccc(CO)cc1	label 0
CC(CO)N1C(=O)[C@@H]2[C@H]3C(=O)OCC=C[C@H]3OC23C=CCN(CCN2CCOCC2)C(=O)[C@@H]13 (stereo partly drawn)	label 0
OCCCC1=CC(c2ccc(CN3CCCC3)cc2)N(Cc2sc3ccccc3c2Cl)CC1 (stereo not drawn)	label 1
CN(C)CCCNC(=O)[C@@]1(c2ccc([N+](=O)[O-])cc2)CC(=O)N(CC23CC4CC(CC(C4)C2)C3)[C@@H]1c1ccc(CO)cc1I	label 1
NC(=O)NCC#Cc1ccc2c(c1)[C@]1(C(=O)N2)[C@H](C(=O)NC[C@H](O)c2ccccc2)[C@H]2C(=O)O[C@H](c3ccccc3)[C@H](c3ccccc3)N2[C@@H]1c1ccc(OCCO)cc1	label 0
O=C1O[C@H](c2ccccc2)[C@H](c2ccccc2)N2[C@H]1[C@@H](C(=O)Nc1nc3ccccc3s1)[C@]1(C(=O)Nc3ccc(C#CCCO)cc31)[C@H]2c1ccc(O)cc1	label 1
O=C1OCC=C[C@H]2OC34C=CCN(Cc5ccccc5)C(=O)[C@H]3N(CCCCCCO)C(=O)[C@@H]4[C@@H]12 (stereo partly drawn)	label 0

====

A collection of compounds and their measured composite z-score
measured-target: Torsin-1A-interacting protein 2 (Homo sapiens) (UniProt Q8NFQ8)
Sequence (Q8NFQ8 whole entry, looked up): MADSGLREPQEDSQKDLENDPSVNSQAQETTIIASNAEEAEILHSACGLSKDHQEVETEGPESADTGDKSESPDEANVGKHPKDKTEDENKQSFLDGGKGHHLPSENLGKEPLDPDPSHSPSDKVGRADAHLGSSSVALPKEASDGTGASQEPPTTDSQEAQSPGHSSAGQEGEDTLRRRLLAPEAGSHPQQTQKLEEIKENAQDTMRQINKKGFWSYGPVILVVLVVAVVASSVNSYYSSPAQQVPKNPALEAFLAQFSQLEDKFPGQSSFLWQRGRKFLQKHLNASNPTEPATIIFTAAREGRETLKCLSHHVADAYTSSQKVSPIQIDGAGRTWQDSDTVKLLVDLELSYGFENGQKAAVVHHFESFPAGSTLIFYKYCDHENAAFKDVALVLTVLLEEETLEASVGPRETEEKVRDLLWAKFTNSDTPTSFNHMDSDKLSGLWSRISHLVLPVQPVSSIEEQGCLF
protocol-description: LULL1 binders on small-molecule microarray, primary screen, cell lysate, human LULL1 lysate, 635/667 nm fluorescence (AID 1092);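 also: probe is lysate of COS7 cells overexpressing human LULL1; score merges per-feature 667 nm fluorescence with signal-to-noise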
assay-conditions: hLULL1 lysate binding, 635 nm fluorescence, higher = more signal
measured-endpoint: composite z-score

                                   compound  measured_endpoint  number
0  CC(C)[Si](C#C[Si](C(C)C)(C(C)C)C(C)C)(O[C@H](C)c1cn([C@H](CO)Cc2ccccc2)nn1)C(C)C  composite z-score    1.76
1  CN(C)C(=O)[C@@]1(Cc2ccccc2CN=[N+]=[N-])N=C(c2ccc(OCCCO)cc2)O[C@H]1c1ccccc1CN=[N+]=[N-]  composite z-score     2.6
2  CC1CC/C=C\[C@H]2OC34C=CCN(C(C)C)C(=O)[C@H]3N(CCCCCCO)C(=O)[C@@H]4C2C(=O)O1 (stereo partly drawn)  composite z-score   -1.42

====

measured-target: Luciferin 4-monooxygenase (Photinus pyralis)
protocol-description: firefly luciferase enzyme inhibitors, primary screen, biochemical, luminescence, purified enzyme, 2006 set (AID 1141);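 also: cell-free assay with purified firefly luciferase at 100 ng per well in PBS; test concentration not given here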
assay-conditions: SteadyGlo luminescence, 30 min, higher = more signal, called active from +8 up or from −8 down
Activity calls are given as the source filed them.
Measured z-score accompanies every entry in the list below.

compound	z-score
CCCCCCCCCCC(O)C1C=CC2C(=O)N(C)C(=O)C2N1Nc1ccc([N+](=O)[O-])cc1[N+](=O)[O-] (centres undefined)	0.581 (inactive)
COC(=O)c1c2oc(c1C(=O)OC)C(=O)N(Cc1ccccc1)Cc1cn(nn1)C[C@H](Cc1ccccc1)NC(=O)N[C@H](CO)CC2	0.978 (inactive)
CC(C)N1C(=O)C[C@@](C(=O)NCCCN(C)C)(c2ccc([N+](=O)[O-])cc2)[C@H]1c1ccc(CO)cc1	-0.287 (inactive)
CC(C)Cc1ccc(CN2CC[C@@H](NC(=O)Nc3ccccc3)C2)cc1	0.398 (inactive)
CC(C)[Si](C#CCCCC#N)(O[C@H](c1ccccc1)c1cn([C@H](CO)Cc2ccccc2)nn1)C(C)C	-0.175 (inactive)
CC(=O)NCCCC[C@@H]1NC(=O)[C@@H]2C[C@H](C(=O)NCCCC[N+](C)(C)C)[C@H](c3ccc(O)cc3)N2C1=O	-0.174 (inactive)
CCOC(=O)C[C@H]1[C@H](OC(=O)Cc2ccc3c(c2)OCO3)[C@@H](NC(=O)CC(C)C)c2cc(OCCCO)ccc2N1C(=O)Cc1ccc(OC)cc1	-1.91 (inactive)
[N-]=[N+]=NCc1ccccc1C[C@@]1(C(=O)N2CCOCC2)N=C(c2ccc(OCCCO)cc2)O[C@@H]1c1ccccc1	-0.469 (inactive)
C=CCN1C(=O)[C@@]2(O[C@@H](CCn3cc([C@H](O)c4ccccc4)nn3)[C@H]([Si](C)(C)c3ccc(OC)cc3)[C@H]2C)c2cc(N3CCC3=O)ccc21	-1.21 (inactive)
COC(=O)[C@@]1(Cc2ccccc2)[C@H]2c3cc(C(=O)N(C)C)n(CCN4CNCC4=O)c3C[C@H]2CN1C(=O)c1ccccc1	0.394 (inactive)
COCCCNC(=O)[C@@]1(Cc2ccccc2CN=[N+]=[N-])N=C(c2ccc(OCCCO)cc2)O[C@H]1c1ccccc1	0.094 (inactive)
COC(=O)c1ccc([C@H](NC(=O)c2ccco2)[C@]2(C)C[C@H]2C2CCCCC2)cc1	1.34 (inactive)
O=C1O[C@H](c2ccccc2)[C@H](c2ccccc2)N2[C@H]1[C@@H](C(=O)N1CCN(c3ncccn3)CC1)[C@]1(C(=O)Nc3ccc(C#CC4(O)CCCCCC4)cc31)[C@H]2c1ccc(OCCO)cc1	-1.2 (inactive)
COC(=O)c1c(CC[C@@H](CO)NC(=O)N2CCC[C@H]2Cn2cc(Cc3ccccc3)nn2)oc(C(C)=O)c1C(=O)OC	1.15 (inactive)
